test: protein stability index of a GFP-peptide fusion (yeast GPS) (PSI 1-4); higher = more stable; sorted into four equal gates, so the index is relative within each strain; details: san1∆
READOUT LABEL: protein stability index
The answer should be a number; do not append a unit.

Completed entries (count: 10):
CHAIN SEQUENCE | protein stability index
KTYNCLHEKYLTEGGSI [SMC1] | 2.52
HLELYTSQYGTPSTETA [PRE3] | 1.44
SMKANTSTNPNGLGTSH [ARP7] | 2.95
KAHPNFPIALQWTGGRG [FAS1] | 2.2
FGTGKRLAKKVARRNAD [RPS24A] | 3.1
KNTQSPQTPLVEPVTER [SNU114] | 2.72
IKCSQSSHLSDNDFIIN [POP5] | 2.66
NAQSKLSLTLNTHYHAD [SNF2] | 2.73
NVKELWTEKKGKNVINR [SMD2] | 3.54
RLELLQLSPVKNSRVEL [SMC4] | 3.22

Then this sequence:
Documented protein stability index of VCAKLFGNIQKVVNFWL [RPO21] : 1.95

----------
Reported protein stability index values for the following sequences.
assay: protein stability index of a GFP-peptide fusion (yeast GPS) (PSI 1-4); higher = more stable; sorted into four equal gates, so the index is relative within each strain; settings: pdr5∆
The answer should be a number; do not append a unit.

Completed entries (count: 4):
CHAIN SEQUENCE | READOUT LABEL | RESULT
MNQSSIDRGLFRSLFFR [RPB2] | protein stability index | 2.97
YCKGKTCRKHTQHKVTQ [RPL42A] | protein stability index | 3.06
ENRKKDESDSENDIEIK [YLR335W/NUP2] | protein stability index | 2.23
HFTEIKLNKVDKNELQQ [SIR3] | protein stability index | 2.88

Documented protein stability index of LEAPVKSIENPTQTKGN [YLR335W/NUP2] : 3.17

Documented protein stability index of STCIVSLIRNNLHAEGW [ECM29] : 1.47

Documented protein stability index of RKCETQKQWDDIAFVLN [YCS4] : 3.01

Documented protein stability index of CISLSGVPNYLVQLEPH [SSN2] : 2.09

Documented protein stability index of NFLIKLSELSPGIMLRQ [YCS4] : 2.98

Documented protein stability index of SKSNLIHNYDSKKSTIT [RGR1] : 3.03

Documented protein stability index of IYRDRSTFTKHLIKCFF [ITC1] : 1.68

Documented protein stability index of SGAITFVNETPRVIEPV [PRP8] : 1.96

Documented protein stability index of FIRHVAKLNYKNLNPAS [ECM29] : 1.16

Documented protein stability index of VSQVRVVPNEKADDDSV [ASC1] : 3.11

Documented protein stability index of IELKTDWVRFLALALGI [RPN1] : 1.37

Documented protein stability index of SMKANTSTNPNGLGTSH [ARP7] : 3.41

Documented protein stability index of LEDPYKYHYKEEWLNTK [CSN9] : 3.2

Documented protein stability index of YVSALKRINKFLDSVHK [POP7] : 1.56

Documented protein stability index of TIDWVEAGLQLCRQGHN [PRP8] : 2.77

Documented protein stability index of LFAGYTDNVIRVWQVMT [ASC1] : 2.07

----------
experiment: protein stability index of a GFP-peptide fusion (yeast GPS) (PSI 1-4); higher = more stable; sorted into four equal gates, so the index is relative within each strain; conditions: doa10∆
READOUT LABEL: protein stability index

Completed entries (count: 2):
CHAIN SEQUENCE | protein stability index
LKSTKHSISEAENMLEE [SMC4] | 3.06
SKPVLIVGQKNLNRAFN [DIS3] | 3.08

Then this sequence:
Documented protein stability index of FNTNFDDEFGDLDAVFF [SNF6] : 3

----------
test: protein stability index of a GFP-peptide fusion (yeast GPS) (PSI 1-4); higher = more stable; sorted into four equal gates, so the index is relative within each strain; settings: ubr1∆
Outcome: Condition met for protein stability index of at least 3; Condition not met for anything lower.

Check out these entries, answers already filled in.
CHAIN SEQUENCE | CAT
PGEFVTAIAHSIREQVH [SNF5] | Condition not met
YDTTPLLDTNSLEENAM [SKI6] | Condition not met
AETDYVDPKRLAMVIIK [DSN1] | Condition met
LASRNKWDDLNEQLTLL [RPN5] | Condition met
SNFTSIIGPNGSGKSNM [SMC1] | Condition met
LNLSLHKLDLAKRNLDA [SMC2] | Condition not met
SLTAEAMTAAEHGLHAP [CYT1] | Condition met
SNIQRNVLFLRLFNNVK [SRP72] | Condition not met

Decide: is the reported value of protein stability index for SSSSDIIVPDLIELKSD [YML103C/NUP188] equal to or greater than 3?
Condition not met

----------
assay: protein stability index of a GFP-peptide fusion (yeast GPS) (PSI 1-4); higher = more stable; sorted into four equal gates, so the index is relative within each strain; details: doa10∆
READOUT LABEL: protein stability index
The answer should be a number; do not append a unit.

Completed entries (count: 6):
CHAIN SEQUENCE | protein stability index
EFVDDYTVNVVDVFAMP [RPN11] | 3.08
HLELYTSQYGTPSTETA [PRE3] | 1.39
KKFDISNDNLDLISEIL [MED1] | 2.77
ELIKNYITARIMAKRPF [FAS1] | 2.93
ISLRNNHKIIARVKAFD [SMD2] | 1.79
LNDLNHLLVQLQKNDVY [REC8] | 2.52

Then this sequence:
Documented protein stability index of SLTTVWAEHLSDEVKRR [RPL3] : 2.87

----------
test: protein stability index of a GFP-peptide fusion (yeast GPS) (PSI 1-4); higher = more stable; sorted into four equal gates, so the index is relative within each strain; conditions: pdr5∆
READOUT LABEL: protein stability index
The answer should be a number; do not append a unit.

Documented protein stability index of VKKTGENEISSLLAMHK [CDC53] : 2.54

----------
Reported protein stability index values for the following sequences.
assay: protein stability index of a GFP-peptide fusion (yeast GPS) (PSI 1-4); higher = more stable; sorted into four equal gates, so the index is relative within each strain; details: ubr1∆
The answer should be a number; do not append a unit.

Documented protein stability index of WYIEKVIRIPMQENDKI [CSI1] : 3.02

----------
assay: protein stability index of a GFP-peptide fusion (yeast GPS) (PSI 1-4); higher = more stable; sorted into four equal gates, so the index is relative within each strain; details: ubr1∆
READOUT LABEL: protein stability index
The answer should be a number; do not append a unit.

Completed entries (count: 3):
CHAIN SEQUENCE | RESULT
DLSGADIQAMCTEAGLL [RPT2] | 3.42
PALESSPVTGDNSPSED [SNF2] | 3.33
FLNHAFDYMNRYWVQKE [CDC53] | 1.94

Documented protein stability index of ETIIFDSELNRALFETK [RRI1] : 3.35

Documented protein stability index of QVIVDIFSVHGNTVVDG [YCG1] : 2.34

Documented protein stability index of NTTVISDKQRRLLAKDA [DIS3] : 2.18

Documented protein stability index of MSQGQSKKLDVTVEQLR [NSL1] : 2.78

Documented protein stability index of GESIMSEEPTDFGFDLD [MCD1] : 3.24

Documented protein stability index of VTKDTKKYSSKNKYGEI [SRP68] : 2.77

Documented protein stability index of RVPIRSEYKVAFPHLYN [PRP8] : 2.08

Documented protein stability index of PLITRHCYPRQLCQITC [RRP46] : 2.11

Documented protein stability index of NLLESITKLLEINLSKI [YCS4] : 2.77

Documented protein stability index of ATLPYIKQDIPIVIIFR [RPB2] : 1.14

Documented protein stability index of LNVYHYFGENSSISWKN [YJL039C/NUP192] : 3.03

Documented protein stability index of MKVKADRDESSPYAAML [RPS14A] : 3.27

Documented protein stability index of LSTSAFMEIVLEYNVAL [YML031W/NDC1] : 2.12

Documented protein stability index of RERDITSLFHKFILSGF [RRI2] : 2.09

Documented protein stability index of YENKQLYFPDDYPFTQL [POP1] : 3.01

Documented protein stability index of ANEEPNTENVESVPTPA [ITC1] : 3.18

Documented protein stability index of FISYHDKYLCMLKTCVF [NUT1] : 2.13

Documented protein stability index of KAAFLGSEVRLRDDTLP [COR1] : 2.68

----------
Reported protein stability index values for the following sequences.
experiment: protein stability index of a GFP-peptide fusion (yeast GPS) (PSI 1-4); higher = more stable; sorted into four equal gates, so the index is relative within each strain; settings: ubr1∆
The answer should be a number; do not append a unit.

Completed entries (count: 2):
CHAIN SEQUENCE | RESULT
ELVVFLPALCKKMGVPY [RPL8A] | 3
VLMERKDERGEGEAKQK [ITC1] | 3.07

Then this sequence:
Documented protein stability index of LEDPYKYHYKEEWLNTK [CSN9] : 3.09

src = the supplement of paper PMC9732359
